# tested.target: CAMKK2 (human) (UniProt Q96RR4)
# Sequence (Q96RR4 whole entry, looked up): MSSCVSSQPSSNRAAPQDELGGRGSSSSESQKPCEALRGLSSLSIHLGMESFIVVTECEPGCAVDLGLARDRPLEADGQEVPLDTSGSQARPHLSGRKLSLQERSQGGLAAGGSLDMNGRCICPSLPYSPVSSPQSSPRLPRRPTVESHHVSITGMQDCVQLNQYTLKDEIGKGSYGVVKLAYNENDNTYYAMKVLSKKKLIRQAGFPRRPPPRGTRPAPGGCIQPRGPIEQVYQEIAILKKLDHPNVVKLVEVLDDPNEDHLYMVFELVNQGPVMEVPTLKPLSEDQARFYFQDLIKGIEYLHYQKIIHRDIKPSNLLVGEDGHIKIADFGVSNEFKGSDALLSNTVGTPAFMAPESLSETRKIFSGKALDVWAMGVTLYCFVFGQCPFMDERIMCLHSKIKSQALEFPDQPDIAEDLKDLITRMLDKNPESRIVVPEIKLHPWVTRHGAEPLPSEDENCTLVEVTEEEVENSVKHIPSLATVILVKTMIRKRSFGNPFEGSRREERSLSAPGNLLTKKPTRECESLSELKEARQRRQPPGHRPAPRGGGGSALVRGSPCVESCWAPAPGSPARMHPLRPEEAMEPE
# assay.method.text: KINOMEscan competition binding
# measurement.context: compound 10.0 µM
Please provide measured kinase still bound, per cent of control for the entries that follow.
Answers are plain numbers, in %.

CC(C)n1nc(-c2cc3cc(O)ccc3[nH]2)c2c(N)ncnc21 = 30

Hey, can you go through the list below and give me kinase still bound, per cent of control for every item?
1. COC(=O)Nc1ccc(-c2nc(N3CCOCC3)c3cnn(C4CCN(C(=O)OC)CC4)c3n2)cc1
2. CCC(=O)N1CCN(c2ccc(-n3c(=O)ccc4cnc5ccc(-c6cnc7ccccc7c6)cc5c43)cc2C(F)(F)F)CC1
3. COc1ccc(-c2ccc3c(N4CCOCC4)nc(N4C[C@@H](C)O[C@@H](C)C4)nc3n2)cc1CO

1. 84
2. 85
3. 64

Reference for the values: the kinase profiling compilation of Christmann-Franck et al. (2016)
